Cited source for all entries: a collection of fitness landscapes (doi:10.1016/j.celrep.2020.107928)

B1: Caulobacter ParB omega fusion; a variant is named by its letters at X, in order, B8GW30 (parent)
chain: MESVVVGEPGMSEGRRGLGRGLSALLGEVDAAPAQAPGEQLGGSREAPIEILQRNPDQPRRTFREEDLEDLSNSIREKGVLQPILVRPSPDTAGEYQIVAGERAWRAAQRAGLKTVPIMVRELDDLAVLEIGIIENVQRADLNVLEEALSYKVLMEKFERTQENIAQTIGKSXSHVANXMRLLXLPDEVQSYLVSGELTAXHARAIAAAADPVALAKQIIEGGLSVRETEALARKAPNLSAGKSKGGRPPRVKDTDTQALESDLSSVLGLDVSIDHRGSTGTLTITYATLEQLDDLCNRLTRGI

Variants of: B1
assayExplanation: one-hybrid fitness for binding NBS DNA (the Noc-binding site; scaled: cognate 1, non-cognate 0); higher = stronger binding
conditionDetails: with NBS DNA site
Whole data set: some 81,000 sequences, median “one-hybrid fitness for binding NBS DNA” near -0.1, cut for the highest 2% near 0.36. The entries come from a sample that favours the highest values as a whole.
Listing: one-hybrid fitness for binding NBS DNA of selected variants
measuredQuantity: one-hybrid fitness for binding NBS DNA

> print(dat)
    mutations  result
 1       NPRM   ≤ 0.2
 2       DLLT   ≤ 0.2
 3       HDED   ≤ 0.2
 4       VASN   ≤ 0.2
 5       KRHP   ≤ 0.2
 6       QSPF   ≤ 0.2
 7       KCGT   ≤ 0.2
 8       SITS   ≤ 0.2
 9       GQQS   ≤ 0.2
10       RIGD   ≤ 0.2
11       RRSN   0.356
12       QRKR    1.08
13       CMSN   ≤ 0.2
14       SRRP   ≤ 0.2
15       RTGG   ≤ 0.2
16       TAIG   ≤ 0.2
17       HSNA   ≤ 0.2
18       RIWM   ≤ 0.2
19       NDTS   ≤ 0.2
20       RYSH   ≤ 0.2
21       PRNP   ≤ 0.2
22       RIKD   ≤ 0.2
23       KNLL   ≤ 0.2
24       QRKY   0.699
25       QRYL   ≤ 0.2
26       QRSD   0.208
27       NRKY   ≤ 0.2
28       QRSS   0.659
29       THIG   ≤ 0.2
30       KRGT   0.537
31       RIRR   0.638
32       RMVR   0.314
33       QPDL   ≤ 0.2
34       RYRN   ≤ 0.2
35       RGYR   ≤ 0.2
36       FPTR   ≤ 0.2
37       WLEG   ≤ 0.2
38       CCMW   ≤ 0.2
39       RWGG   ≤ 0.2
40       KRGH   ≤ 0.2
41       ERNT   ≤ 0.2
42       SKYT   ≤ 0.2
43       QLYL   ≤ 0.2
44       RIKR   0.675
45       EVQC   ≤ 0.2
46       ALSW   ≤ 0.2
47       PGPS   ≤ 0.2
48       AFCR   ≤ 0.2
49       KCST   ≤ 0.2
50       KAET   ≤ 0.2
51       RGVR   ≤ 0.2
52       RSVA   ≤ 0.2
53       RYST   0.452
54       FLVC   ≤ 0.2
55       RYRD   ≤ 0.2
56       KPET   ≤ 0.2
57       HWPK   ≤ 0.2
58       RVSW   ≤ 0.2
59       LNNN   ≤ 0.2
60       RRSS   0.643
61       RIWR   0.367
62       LKIL   ≤ 0.2
63       RYSS   0.437
64       RIGR   0.441
65       RRSD   ≤ 0.2
66       RIIR   ≤ 0.2
67       RRVA   0.571
68       KRET   0.501
69       RAKP   ≤ 0.2
70       YPHD   ≤ 0.2
71       TICV   ≤ 0.2
72       RCSH   0.203
73       RIVR    0.28
74       HHDR   ≤ 0.2
75       RCSQ   ≤ 0.2
76       QWKR   0.356
77       KLGK   ≤ 0.2
78       RYQH   ≤ 0.2
79       RYQD   ≤ 0.2
80       SAIE   ≤ 0.2
81       SIAA   ≤ 0.2
82       SNVR   ≤ 0.2
83       RYQS   0.386
84       QSQY   ≤ 0.2
85       KCHT   ≤ 0.2
86       KSQQ   ≤ 0.2
87       PMCY   ≤ 0.2
88       RIRH   0.333
89       AWAT   ≤ 0.2
90       QRVL   ≤ 0.2
91       RAKR   0.668
